All values here come from the supplement of paper PMC7411054.

tested on: A549-CANX-COX4; experiment: phenotypically active (imaging signature differs from DMSO and reproducible) at any of 0.3-9 uM (binary (1 = active, 0 = inactive)); higher = active; details: treatment time: 24 h
Return exactly one item of active, inactive

Query string: For CC1=C(/C=C/C(C)=C/C=C/C(C)=C/C(=O)O)C(C)(C)CCC1 , what call appears in the results of this test?
Result string: inactive

Query string: Hi team, can someone confirm the assay call for CN(C)CCc1c[nH]c2ccc(Cn3cncn3)cc12 ?
Result string: inactive

Query string: Which outcome was entered for the compound C[C@@H](N)[C@H]1CC[C@H](C(=O)Nc2ccncc2)CC1 in this test?
Result string: active

Query string: Record request — test call for Nc1cc(N)c(N)cc1N
Result string: inactive

Query string: Recorded test outcome, item COc1ccc(-c2cc(=O)c3c(O)cc(O)cc3o2)cc1O
Result string: active

Query string: Name the outcome recorded for COc1ccc(C[C@@H]2c3cc(OC)c(OC)cc3CC[N@+]2(C)CCC(=O)OCCCCCOC(=O)CC[N@@+]2(C)CCc3cc(OC)c(OC)cc3[C@H]2Cc2ccc(OC)c(OC)c2)cc1OC [Cisatracurium besylate] in the assay.
Result string: inactive

Query string: Could you check what this test reported for Cc1cc2c(s1)Nc1ccccc1N=C2N1CCN(C)CC1 ?
Result string: inactive

Query string: Test call for this compound, please: C=C1C(=O)O[C@@H]2[C@H]3O[C@]3(C)CCC=C(C)CC[C@@H]12 [Parthenolide]
Result string: active

Query string: Check the results log: what was the call for CNC(=O)c1ccc(C)c(-n2c(C)cc(OCc3ccc(F)cc3F)c(Br)c2=O)c1 ?
Result string: inactive

Query string: Which outcome was entered for the compound C=C1C(=O)O[C@@H]2C=C(C)CCC=C(C)CC[C@@H]12 [Costunolide] in this test?
Result string: active

###

Provide the reported lowest phenotypically active concentration of each item.
system: WPMY1-ACTB-RAB5A; test: lowest phenotypically active concentration; higher = less potent; settings: treatment time: 24 h
Respond with the bare value in µM.

Query string: What value of lowest phenotypically active concentration has been recorded for this entry: c1ccc2c(c1)Cc1c(Nc3ccc4c(c3)OCCO4)n[nH]c1-2
Result string: 3

Query string: Form field: reported lowest phenotypically active concentration of COc1cc2ncnc(Nc3ccc(O)c(Br)c3)c2cc1OC
Result string: 3

Query string: May I ask what lowest phenotypically active concentration has been recorded for Nc1ncnc2c1nc(Cl)n2C1O[C@H](CO)[C@@H](O)[C@H]1O (some centres undefined) ?
Result string: 9

Query string: Look up lowest phenotypically active concentration: O=c1cc(N2CCOCC2)oc2c(-c3ccccc3)cccc12
Result string: 9

Query string: Return reported lowest phenotypically active concentration; argument: CN1C(=O)/C(=C2/Nc3ccccc3/C2=N/O)c2ccc(Br)cc21
Result string: 1

Query string: Query (molecule): CNCCCC12CCC(c3ccccc31)c1ccccc12 ; field requested: lowest phenotypically active concentration
Result string: 9

###

system: HepG2-TP53BP1-CLTA; experiment: phenotypically active (imaging signature differs from DMSO and reproducible) at any of 0.3-9 uM (binary (1 = active, 0 = inactive)); higher = active; settings: treatment time: 24 h
Structures can show the parent of a compound that is named as a salt.
OBSERVATION_TYPE: phenotypically active
// keep it numeric: no unit symbol after the value

Query string: Any idea what phenotypically active was measured for O=C1CC(c2ccc(O)cc2)Oc2cc(O)cc(O)c21 (centres undefined) [Naringenine] ?
Result string: 0

Query string: Name the reported phenotypically active value associated with the compound CC(=O)c1c(C)c2cnc(Nc3ccc(N4CCNCC4)cn3)nc2n(C2CCCC2)c1=O
Result string: 1

Query string: Need phenotypically active of CC(=O)NCC(=O)N1[C@@H]2CC[C@H]1c1ccc(Nc3ncc(C(F)(F)F)c(NC4CCC4)n3)cc12 , thanks.
Result string: 1

Query string: Give its phenotypically active value. Item: CC(C)NC[C@H](O)COc1cccc2ccccc12 [(S)-(-)-Propranolol hydrochloride]
Result string: 0

Query string: Entry CCC(=C(CC)c1ccc(O)cc1)c1ccc(O)cc1 (stereo in doubt) [diethylstilbestrol] : reported phenotypically active = ?
Result string: 0

Query string: Sample Cc1ccc(NC2=CC(=O)c3sc(C)nc3C2=O)cc1 [Ryuvidine] — what was its phenotypically active?
Result string: 1

Query string: Give the measured phenotypically active of Oc1cc(O)cc(/C=C/c2ccc(O)c(O)c2)c1 [Piceatannol] .
Result string: 0

Query string: Requested read-out: phenotypically active. Entry: Nc1c2c(nc3ccccc13)CCCC2 [tacrine]
Result string: 0

Query string: For the compound CC(CCc1ccc(O)cc1)NCCc1ccc(O)c(O)c1 (centres undefined) [Dobutamine hydrochloride] , what phenotypically active is on record?
Result string: 0

Query string: Fill blank: measured phenotypically active of the compound NS(=O)(=O)c1cc2c(cc1Cl)NC(C1CC3C=CC1C3)NS2(=O)=O (centres undefined) [cyclothiazide] is ____.
Result string: 0

Query string: Which phenotypically active is reported for this compound? CCCCCN(C)CCC(O)(P(=O)(O)O)P(=O)(O)O [ibandronate]
Result string: 0

Query string: For the compound O=C(CCCCCN1C(=O)c2cccc3cccc(c23)C1=O)NO [Scriptaid] , what phenotypically active is on record?
Result string: 1

Query string: Suppose we examine the compound C[C@H]1Oc2cc(cnc2N)-c2c(nn(C)c2C#N)CN(C)C(=O)c2ccc(F)cc21 ; what phenotypically active value has been reported?
Result string: 1

Query string: I would be grateful if you could share the reported phenotypically active for CCOc1cc(N2CCC(O)CC2)ccc1Nc1ncc2c(n1)N(C)c1ccccc1C(=O)N2C .
Result string: 1

Query string: # get_value(readout='phenotypically active', item= NC(=O)Nc1cc(-c2cccc(F)c2)sc1C(=O)N[C@H]1CCCNC1 [AZD 7762 hydrochloride] )
Result string: 1

Query string: For the compound shown here, Brc1c(NC2=NCCN2)ccc2nccnc12 [brimonidine] , give the reported phenotypically active.
Result string: 0

Query string: Can you share its phenotypically active? I mean this compound: CN(C)CCCN1c2ccccc2Sc2ccc(C(F)(F)F)cc21 [triflupromazine]
Result string: 0

Query string: Which phenotypically active is reported for this compound? O=C(CCCCCCC(=O)NO)NO
Result string: 0

Query string: Entry O=c1c(-c2ccc(O)cc2)coc2cc(O[C@@H]3O[C@H](CO)[C@@H](O)[C@H](O)[C@H]3O)cc(O)c12 [Genistin] has what phenotypically active?
Result string: 0
